target: Fes (UniProt P07332); assay: phosphorylation enrichment, bacterial display (enrichment ratio); higher = better substrate or ligand; peptides without Tyr show the background
Sequence (P07332 whole entry, looked up): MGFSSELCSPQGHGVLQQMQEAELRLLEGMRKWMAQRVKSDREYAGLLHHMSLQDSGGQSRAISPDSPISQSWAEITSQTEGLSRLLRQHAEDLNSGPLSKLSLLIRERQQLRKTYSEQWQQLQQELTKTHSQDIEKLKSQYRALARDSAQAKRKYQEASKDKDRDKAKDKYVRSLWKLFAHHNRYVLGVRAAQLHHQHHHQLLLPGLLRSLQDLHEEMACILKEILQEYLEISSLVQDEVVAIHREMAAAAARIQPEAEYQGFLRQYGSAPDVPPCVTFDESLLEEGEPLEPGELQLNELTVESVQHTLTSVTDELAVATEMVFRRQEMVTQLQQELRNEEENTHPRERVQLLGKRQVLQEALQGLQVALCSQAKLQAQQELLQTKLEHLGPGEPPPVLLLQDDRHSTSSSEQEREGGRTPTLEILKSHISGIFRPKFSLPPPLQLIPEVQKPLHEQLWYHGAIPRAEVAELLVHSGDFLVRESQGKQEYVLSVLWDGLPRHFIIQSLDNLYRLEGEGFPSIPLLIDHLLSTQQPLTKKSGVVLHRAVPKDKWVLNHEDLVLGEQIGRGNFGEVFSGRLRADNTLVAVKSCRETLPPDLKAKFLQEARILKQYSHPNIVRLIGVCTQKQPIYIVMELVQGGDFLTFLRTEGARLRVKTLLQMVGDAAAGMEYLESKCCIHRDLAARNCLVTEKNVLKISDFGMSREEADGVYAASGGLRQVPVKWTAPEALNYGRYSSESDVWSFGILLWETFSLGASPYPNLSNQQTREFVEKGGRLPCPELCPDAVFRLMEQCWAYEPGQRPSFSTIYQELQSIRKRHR
The sequences listed here are annotated with their phosphorylation enrichment.
When you answer, write just the number.

Some sequences with known phosphorylation enrichment results, for comparison:
residue codes: FSCLPYGRLAY [SLC52A2_Y305]
target desc: Fes (UniProt P07332)
phosphorylation enrichment: 0.98
--
residue codes: SVMAEYGLFAA [VSX2_Y219_G223A_YF]
target desc: Fes (UniProt P07332)
phosphorylation enrichment: 0.845
--
residue codes: ATQDDYVLEVR [PTPRZ1_Y2179]
target desc: Fes (UniProt P07332)
phosphorylation enrichment: 1.23
--
residue codes: YKRAVYCIIGR [NUP93_Y391]
target desc: Fes (UniProt P07332)
phosphorylation enrichment: 0.785
--
residue codes: ARQEEYSAMRD [KRAS_Y64_G60R]
target desc: Fes (UniProt P07332)
phosphorylation enrichment: 0.902

**Query** Consider the sequence shown here: VERIGYDFIPT [CBS_Y308_G305R] What is its recorded phosphorylation enrichment?
**Result** 0.801

**Query** Quick check: phosphorylation enrichment of EKSREYHRLFE [PIK3R1_Y463_D464H_YF] ?
**Result** 0.737

###

Listing: phosphorylation enrichment of selected sequences
test system: Fer (mouse); test: phosphorylation enrichment, bacterial display (enrichment ratio); higher = better substrate or ligand; peptides without Tyr show the background
Give the figure only, with no unit attached.

residue codes: IDDNQYAYLKA [HNF4A_Y286_E285Q]
phosphorylation enrichment: 1

**Query** Bench note: what phosphorylation enrichment did ERFAFYRDSPR [FOXE3_Y108] show?
**Result** 0.404

**Query** Look up phosphorylation enrichment: NHYKIHNLCAE [PTEN_Y68_Y68H]
**Result** 0.463

**Query** Query: phosphorylation enrichment; subject: AACQHYGVHTC [NR4A2_Y275_R278H]
**Result** 0.347

**Query** What value of measured phosphorylation enrichment is listed for RPFFLYVAFHD [SGSH_Y174] ?
**Result** 0.47

**Query** Query (sequence): TFMKKYPKVFL [CNBD1_Y70_Q69K] ; field requested: phosphorylation enrichment
**Result** 0.393

**Query** Find the recorded phosphorylation enrichment belonging to AHPIIYEIIEA [PYKtide_E_2014] and report it.
**Result** 16.2

**Query** For the sequence shown here, VTGWGYRKLRD [F11_Y521] , give the reported phosphorylation enrichment.
**Result** 0.385

**Query** Requested read-out: phosphorylation enrichment. Entry: KPFRVYCDMNT [FGB_Y269_YF]
**Result** 0.593

**Query** Which value of phosphorylation enrichment has been reported for DLDATYRPMYS [JUP_Y701_M697L] in the records?
**Result** 0.433

**Query** Tell me the measured phosphorylation enrichment of EEQKKYFNAMK [SCN5A_Y1494_YF] , please.
**Result** 0.341

**Query** Bench note: what phosphorylation enrichment did AVRFIYTIDGS [DCX_Y105_G100A_YF] show?
**Result** 0.529

**Query** # input sequence: AAVPAYDKIRV [STXBP2_Y401] ; wanted: its phosphorylation enrichment
**Result** 2.02

**Query** Which measured phosphorylation enrichment value corresponds to DRLASYQDKVR [KRT12_Y139_L140Q] ?
**Result** 0.299

###

Here the recorded SH2 binding enrichment is given for each entry.
target: SHP2-C SH2; experiment: SH2 binding enrichment of the phosphorylated peptide, bacterial display (enrichment ratio); higher = better substrate or ligand; peptides without Tyr show the background
Lab note: record the figure alone, no unit after it.

Worked cases, SH2 binding enrichment given:
residue codes: QNTGGYYDLYG [PTPN11_Y62_D61G]
target desc: SHP2-C SH2
number: 0.755
--
residue codes: ANFAKYGNPNE [BCHE_Y505]
target desc: SHP2-C SH2
number: 0.6
--
residue codes: QAINEYEKWLE [MAP9_Y603]
target desc: SHP2-C SH2
number: 0.882
--
residue codes: PADCRYFAFPQ [GAMT_Y222_YF]
target desc: SHP2-C SH2
number: 1.18
--
residue codes: ELANYYKLHHI [AK7_Y391]
target desc: SHP2-C SH2;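 further: peptide library displayed on the E. coli surface as eCPX fusions, selected cells deep-sequenced, score is each peptide's frequency after selection divided by its frequency in the input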
number: 0.941

**Query** May I ask what SH2 binding enrichment has been recorded for EKLQQYIAPGM [EPHB3_Y600] ?
**Result** 0.734

**Query** Query (sequence): FSCLPYGRLAY [SLC52A2_Y305] ; field requested: SH2 binding enrichment
**Result** 0.465

**Query** Dear colleague, I am looking for the recorded SH2 binding enrichment of the following sequence: YSQNICIQNRN [PKP2_Y631_Y631C]
**Result** 0.619

**Query** Given the entry RPFFLYVAFHD [SGSH_Y174] , report its measured SH2 binding enrichment.
**Result** 0.377

**Query** Recorded SH2 binding enrichment of EEQKKYFNAMK [SCN5A_Y1494_YF] , please.
**Result** 0.847

**Query** I am curious: what SH2 binding enrichment value has been reported for MKVPVYETPAG [PGM5_Y358] ?
**Result** 0.698

**Query** Request the reported SH2 binding enrichment associated with RKETFYTLSCR [GUCY2C_Y681]
**Result** 0.821

**Query** I have this sequence here, PVGVLYKVKVF [PTS_Y128_YF] , and I need its recorded SH2 binding enrichment.
**Result** 0.607

**Query** Which SH2 binding enrichment value is on record for MTFQNYRQALF [FAM20C_Y279_G280R] ?
**Result** 0.792

**Query** Field request: SH2 binding enrichment | item: PSVVAYPKRSQ [MARK3_Y432]
**Result** 0.476

**Query** Would you kindly share the measured SH2 binding enrichment for KLKEKYEKDIA [HMGB1_Y155] ?
**Result** 0.769

**Query** Entry LDVDVYGPSVP [NUBPL_Y109] : reported SH2 binding enrichment = ?
**Result** 0.551

**Query** Look at this sequence and give its reported SH2 binding enrichment. FAKTQYPDIYA [CRX_Y63_V66I]
**Result** 1

**Query** Recorded SH2 binding enrichment for VDTPMYATMQR [TPO_Y55_A53P] , please?
**Result** 1.27

**Query** Need SH2 binding enrichment, item SIKHKYVTALY [KCNH2_Y611_D609H]
**Result** 0.63

###

Catalogue of sequences with associated phosphorylation enrichment
tested on: Fer (mouse); assay: phosphorylation enrichment, bacterial display (enrichment ratio); higher = better substrate or ligand; peptides without Tyr show the background
Hey, just send me the number, nothing else.

residue codes: FSCLPYGRLAF [SLC52A2_Y305_YF]
target desc: Fer (mouse)
number: 0.559
--
residue codes: ANFTEYVATSW [CDKL5_Y171_R175S_YF]
target desc: Fer (mouse)
number: 0.505
--
residue codes: WQQQSYLDLGI [CTNNB1_Y30_S33L]
target desc: Fer (mouse)
number: 0.515
--
residue codes: DRTGHYLCNAC [GATA1_Y223]
target desc: Fer (mouse)
number: 0.408

**Query** Data request, read-out phosphorylation enrichment, for RLRKFYLGKFL [KLB_Y906_YF]
**Result** 0.468

**Query** Need phosphorylation enrichment, item TGDFGYRTPGY [TNS2_Y668_A670T]
**Result** 0.342

###

molecular target: Fyn (UniProt P06241); experiment: phosphorylation enrichment, bacterial display (enrichment ratio); higher = better substrate or ligand; peptides without Tyr show the background
Sequence (P06241 whole entry, looked up): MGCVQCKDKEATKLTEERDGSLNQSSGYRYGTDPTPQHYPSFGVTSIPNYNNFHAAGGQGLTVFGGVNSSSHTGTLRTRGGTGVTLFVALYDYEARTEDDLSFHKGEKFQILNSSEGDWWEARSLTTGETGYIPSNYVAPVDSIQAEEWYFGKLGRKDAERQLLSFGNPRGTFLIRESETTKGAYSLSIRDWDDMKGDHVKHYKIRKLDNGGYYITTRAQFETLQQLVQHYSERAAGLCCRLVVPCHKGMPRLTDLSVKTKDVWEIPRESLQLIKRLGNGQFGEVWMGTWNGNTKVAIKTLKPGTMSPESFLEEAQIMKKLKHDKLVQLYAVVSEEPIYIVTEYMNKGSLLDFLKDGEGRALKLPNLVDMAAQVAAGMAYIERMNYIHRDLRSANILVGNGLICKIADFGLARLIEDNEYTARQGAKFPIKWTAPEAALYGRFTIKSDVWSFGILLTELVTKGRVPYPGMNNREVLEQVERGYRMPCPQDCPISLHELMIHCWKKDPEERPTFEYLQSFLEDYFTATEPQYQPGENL
Could you label it Criterion met if measured phosphorylation enrichment is 0.6 or higher, and Criterion not met otherwise?

// known answers, use as guide
residue codes: IGRHAYGDQYR [IDH1_Y135]
target desc: Fyn (UniProt P06241)
class name: Criterion not met
//
residue codes: AESPEYVHMYT [FAM111A_Y511]
target desc: Fyn (UniProt P06241)
class name: Criterion not met
//
residue codes: MLEVPYVDRNS [F10_Y384]
target desc: Fyn (UniProt P06241)
class name: Criterion not met
//
residue codes: RLAKTYETTLK [ALB_Y377_E382K]
target desc: Fyn (UniProt P06241)
class name: Criterion met
//
residue codes: DGMADYSDPSF [CDC5L_Y459_YF]
target desc: Fyn (UniProt P06241)
class name: Criterion not met

**Query** Tell me whether phosphorylation enrichment is at least 0.6 here: VMLENYSNLVS [ZFP69_Y109]
**Result** Criterion not met

**Query** API: above_or_equal(metric=phosphorylation enrichment, cutoff=0.6) for item YLAAIYPTVGQ [NF1_Y2508_T2507I]
**Result** Criterion not met

**Query** # bool: phosphorylation enrichment of KWRGQYDVANK [BTK_Y425_I429N] >= 0.6
**Result** Criterion not met

**Query** Is it the case that VDLSKYITTIA [FAS_Y232] has phosphorylation enrichment reaching or exceeding 0.6?
**Result** Criterion not met

**Query** Decide: is the reported value of phosphorylation enrichment for PELINYQQHNS [BTK_Y361_H362Q] equal to or greater than 0.6?
**Result** Criterion met

**Query** Please tell me: is the sequence QITQVCGFYDE [PPP2CA_Y127_Y127C] at or over 0.6 in terms of phosphorylation enrichment?
**Result** Criterion met

**Query** phosphorylation enrichment >= 0.6 for NYDLDYDSVQP [MYC_Y16] ?
**Result** Criterion met

**Query** Entry IENKLCGMSDP [RET_Y1062_Y1062C] : is its phosphorylation enrichment no less than 0.6?
**Result** Criterion not met
